Each recorded value in this set is attributed to ChEMBL document CHEMBL4400582.

assay: Clearance in dog at 10 mg/kg, po; assay type: ADME, organism-based, Canis lupus familiaris; conditions: in vivo
endpoint.name: CL/F (mL/min/kg)

>  <smi>
CNc1cc(Nc2cccn(-c3ccccn3)c2=O)nn2c(C(=O)N[C@@H]3C[C@@H]3F)cnc12

>  <unit.tag>
mL/min/kg

>  <assay.result>
25

$$$$

----------
assay: Permeability of the compound in human Caco2 cells; type: ADME, cell-based; details: Caco-2, read-out: permeability

>  <smi>
CNc1cc(Nc2cccn(-c3ncccc3F)c2=O)nn2c(C(=O)NC3CC3)cnc12

>  <Papp>
5.9 ×10⁻⁶ cm/s

$$$$
>  <smi>
CNc1cc(Nc2cccn(-c3cc(C)n(C)n3)c2=O)nn2c(C(=O)NC3CC3)cnc12

>  <Papp>
14.2 ×10⁻⁶ cm/s

$$$$
>  <smi>
CNc1cc(Nc2cccn(-c3ccncc3)c2=O)nn2c(C(=O)NC3CC3)cnc12

>  <Papp>
3.8 ×10⁻⁶ cm/s

$$$$
>  <smi>
CNc1cc(Nc2cccn(-c3ccccn3)c2=O)nn2c(C(=O)NC3CC3)cnc12

>  <Papp>
16.9 ×10⁻⁶ cm/s

$$$$
